Origin of measurements: patent US20220031857A1

- Target Entity: T1, recombinant mouse TfR2 (mouse, UniProt Q9JKX3 103-798, limits assumed)
- T1 construct: Negative control protein
- T1 sequence (looked up): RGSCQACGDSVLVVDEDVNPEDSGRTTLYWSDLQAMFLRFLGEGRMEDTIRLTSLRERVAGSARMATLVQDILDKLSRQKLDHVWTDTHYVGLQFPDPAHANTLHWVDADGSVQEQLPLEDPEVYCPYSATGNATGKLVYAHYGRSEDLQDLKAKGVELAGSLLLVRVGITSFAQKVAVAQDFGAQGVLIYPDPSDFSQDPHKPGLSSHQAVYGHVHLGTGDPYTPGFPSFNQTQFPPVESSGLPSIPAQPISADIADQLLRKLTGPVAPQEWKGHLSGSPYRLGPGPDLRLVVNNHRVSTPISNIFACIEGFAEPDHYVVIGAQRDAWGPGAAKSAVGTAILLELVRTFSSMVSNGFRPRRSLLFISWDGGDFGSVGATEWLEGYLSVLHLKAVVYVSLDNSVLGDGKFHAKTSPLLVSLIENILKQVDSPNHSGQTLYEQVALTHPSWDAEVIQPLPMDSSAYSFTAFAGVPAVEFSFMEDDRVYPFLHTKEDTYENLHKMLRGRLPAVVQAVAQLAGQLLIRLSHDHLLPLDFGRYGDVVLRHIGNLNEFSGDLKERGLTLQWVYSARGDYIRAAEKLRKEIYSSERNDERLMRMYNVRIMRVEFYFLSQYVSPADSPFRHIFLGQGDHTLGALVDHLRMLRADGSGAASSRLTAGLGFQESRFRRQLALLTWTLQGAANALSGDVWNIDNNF
- Assay Overview: phage ELISA
Readout Type: binding result

Binder	Val
SEQ ID NO 39 (VNAR clone displayed on phage) (VNAR, shark VNAR domain on M13 phage; coat-protein fusion not described; also called clone 39) ARVDQTPQTITKETGESLTINCVLRDSNCALSSTLWYRTKSGSRNEESISKGGRYVETVNSGSKSFSLKINDLTVEDSGTYRCNVQGMVYDGSSFWWCDVYGDSTAVTVNA	no binding
SEQ ID NO 36 (VNAR clone displayed on phage) (VNAR, shark VNAR domain on M13 phage; coat-protein fusion not described) VNAR: ARVDQTPQTITKETGESLTINCVLRDSNCDLSRTYWYRKKSGSTNEESISKGGRYVETVNSGSKSFSLRINDLVVEDSGTYRCNVHSVSCIQRLDVYGGGTVVTVNA	no binding
SEQ ID NO 43 (VNAR clone displayed on phage) (VNAR, shark VNAR domain on M13 phage; coat-protein fusion not described) VNAR: ARVDQTPRSVTKETGESLTINCVLRDASYALGSTCWYRKKSGSTNEESISKGGRYVETVNSGSKSFSLRINDLTVEDGGTYRCGVYGGTHQGLCGCDWQLRFSLCGDGRAACGDGTAVTVNA	no binding
SEQ ID NO 42 (VNAR clone displayed on phage) (VNAR, shark VNAR domain on M13 phage; coat-protein fusion not described) VNAR: ARVDQTPRSVTKETGESLTINCVLRDASYALGSTCWYRKKSGSTNEESISKGGRYVETVNSGSKSFSLRINDLTVEDGGTYRCGVCEMQLIAVDSCDHTLDDGLCGGVYAACGDGTAVTVNA	no binding
